- procedure_summary: Carbamoylating activity was determined
- Assay type: ADME
Items are presented alongside their recorded Carbamoylating activity.
Note: the reply should be a number with no unit written.

Worked examples, 4 compounds total:
Task item: Need Carbamoylating activity, item O=NN(CCCl)C(=O)NCCCl
Reply: 70

Task item: Please look up its Carbamoylating activity: O=NN(CCCl)C(=O)NC1CCC(=O)NC1=O (stereo not given)
Reply: 24

Task item: I would be grateful if you could share the reported Carbamoylating activity for O=NN(CCCl)C(=O)N[C@H]1C(O)O[C@H](CO)[C@@H](O)[C@@H]1O (stereo not given in full) .
Reply: 2

Task item: Sample O=NN(CCCl)C(=O)NC1CCCCC1 — what was its Carbamoylating activity?
Reply: 100

Kindly consider the entry below.
Task item: For NC(=O)N(CCCl)N=O , what is its reported Carbamoylating activity?
Reply: 20
